Source: PubChem BioAssay (NCI)

- Test system: SF-295 CNS
- assayNotes: NCI-60 one-dose screen, 48 h (100 = growth as untreated, 0 = no growth, -100 = all killed)
- conditionSet: 10 µM unless noted
This is part of a sample that, as a whole, favours compounds with a hit. Of some 83,000 tested, about 20% had one in any assay.
Listed compounds paired with reported growth
Provide only the numeric value, understood in %.

Below are worked cases with known answers.
[[record]]
compound = "CCN(CC)CCCC(C)NCC(=O)NC(c1ccc2c(c1)OCO2)c1cc(Cl)c2cccnc2c1O (centres undefined)"
readoutvalue = -53.3

[[record]]
compound = "COc1ccc2c(ccn2C(=O)N2c3ccccc3Sc3ccccc32)c1"
readoutvalue = 16.5

[[record]]
compound = "O=S(=O)(Nc1ccc(-n2cnc3cc(-c4ccc(O)cc4)ccc32)cc1)C1CC1"
readoutvalue = 90.1

[[record]]
compound = "CC(C)c1nn(-c2ccccc2)c(N2CCCCC2)c1/C=N/NC(N)=S"
readoutvalue = 77.6

[[record]]
compound = "C[C@H]1[C@H](C)CC[C@]2(COC(=O)c3cccnc3)CC[C@]3(C)C(=CC[C@@H]4[C@@]5(C)CCCNC(C)(C)[C@@H]5CC[C@]43C)[C@H]12"
readoutvalue = 73.3


Inquiry: Recorded growth for "COC(=O)c1c(C(=O)OC)c2n(CC(=O)Nc3cccc4cccnc34)c3ccccc3n2c1C(=O)c1ccc(C)cc1" , please?
Reply text: 95.1

Inquiry: Query: growth; subject: "C=CCn1c(SCC(=O)Nc2cccc(C(=O)/C=C/c3cccc([N+](=O)[O-])c3)c2)nc2ccccc2c1=O"
Reply text: 93.5

Inquiry: Which growth is reported for this compound? "CS(=O)(=O)c1ccc2c(c1)c1c(n2Cc2ccc(Cl)cc2)CCCC1"
Reply text: 67

Inquiry: Which growth is reported for this compound? "COc1ccc(-c2no[n+]([O-])c2Nc2ccccc2Br)cc1"
Reply text: 106

---

- Tested on: NCI-H226 lung
- assayNotes: NCI-60 one-dose screen, 48 h (100 = growth as untreated, 0 = no growth, -100 = all killed)
- conditionSet: 10 µM unless noted
The panel holds about 83,000 compounds, 20% with a hit somewhere; the sample as a whole holds those more often.
Quick list: growth per entry.
Number in %, nothing else.

[[record]]
compound = "COc1cc(-c2noc(C[C@@H](NC(=O)OCc3ccccc3)C(C)C)n2)cc(OC)c1OC"
observedproperty = "growth"
readoutvalue = 101

[[record]]
compound = "CC(=O)Nc1cccc(-n2cnc3cc(-c4ccc(O)cc4)ccc32)c1"
observedproperty = "growth"
readoutvalue = 37.9

[[record]]
compound = "O=S(=O)(Nc1ccc(-n2cnc3cc(-c4ccc(O)cc4)ccc32)cc1)C1CC1"
observedproperty = "growth"
readoutvalue = 96.2

[[record]]
compound = "C/C(=N\\NC(=O)CSc1nc2sc3c(c2c(=O)n1-c1ccccc1)CCC(C)C3)c1ccc(Cl)cc1 (stereo not drawn)"
observedproperty = "growth"
readoutvalue = -1.29

[[record]]
compound = "COc1ccc2c(c1)oc1c3[nH]c4ccccc4c3c3c(c21)C(=O)N(O)C3=O"
observedproperty = "growth"
readoutvalue = 79.9


Inquiry: What reported growth corresponds to "N/C(=N\OC(=O)CSc1nc2ccccc2s1)c1ccc(Cl)cc1" on NCI-H226 lung?
Reply text: 98

Inquiry: Query growth on NCI-H226 lung for "COc1cc(O)c2c(c1)[C@H]1O[C@@H]1C[C@H](O)[C@H](O)C(=O)/C=C\C[C@H](C)OC2=O"
Reply text: 37.9

Inquiry: Query for NCI-H226 lung: what growth does the record show for CCOC(=O)C1=C(C)Nc2nc3ccccc3n2C1c1cccc(Br)c1 (stereo not drawn) ?
Reply text: 102

Inquiry: Any idea what growth came out for "CC(C)=CCc1c(O)c(CC=C(C)C)c2c(c1O)C(=O)C1=C[C@@H]3C[C@H]4C(C)(C)O[C@@](C/C=C(\C)C(=O)O)(C3=O)[C@@]14O2" on NCI-H226 lung?
Reply text: 72.1
